tested on: SK-MEL-28 melanoma; assay: NCI tumour cell line growth inhibition, 48 h
measure name: TGI

What measured TGI is associated with OC1CCCCCCCCCCC1SCCCCl (stereo not drawn) on SK-MEL-28 melanoma? > 100 µM

Same for CC(=O)OCCn1c(Cc2ccc(C)cc2)nn(C(C)=O)c1=O > 100 µM

Same for Cc1ccc2cc3c(cc(C)c4ccccc43)c3c2c1CC3 > 100 µM

---

system: RXF 393 renal; assay: NCI tumour cell line growth inhibition, 48 h
Decide by TGI: equal to or exceeding 40 µM means met, less means not met.

Check the entry COc1ccc(C(=O)c2cc(OC)c(OC)c(OC)c2)cc1OC(=O)C(Cl)(Cl)Cl : does TGI equal or exceed 40 µM? met

Same for COc1cc2nc3c(=C(C#N)C#N)c4ccccc4n3c(=O)c2cc1OC met

Same for O=C(c1cccc(F)c1F)N1CCc2c([nH]c3ccccc23)C1c1ccc2c(c1)OCO2 (centres undefined) not met

Same for O=C(NC1C(O)C(O)C(CO)OC1n1cc(F)c(=O)[nH]c1=O)OCc1ccccc1 (centres undefined) met

Same for CC1=C(Cc2ccccc2)C(Cc2ccccc2)=C(C)S1=O met

Same for NCCNC1=CC(=O)c2nc3ccccc3c3ccnc1c23 met

Same for CCCC(=O)OCC1OC(n2cnc3c(=S)nc(N)[nH]c32)C(OC(=O)CCC)C1OC(=O)CCC (centres undefined) not met

Same for COC(=O)C(CCCCCCCC(C(=O)OC)c1nc2n(c1O)C(=N)N=N2)c1nc2n(c1O)C(=N)N=N2 (centres undefined) met

Same for CC(=O)OC(C[C@H](C)[C@@H]1CC[C@]2(C)C3=CCC4C(C)(C)C(=O)CC[C@]4(C)C3CCC12C)C1OC1(C)C (some centres undefined) not met

---

system: NCI-H226 lung; assay: NCI tumour cell line growth inhibition, 48 h
measure name: TGI

For CC1(c2ccccc2)CCN(C2CC2)CO1 (stereo unspecified) , what is its reported TGI? > 100 µM

Same for CCOC(=O)C(=Cc1ccccc1Cl)C(=O)OCC 5.56 µM

Same for COC(=O)C1=C(C(=O)OC)SC(=C(Cl)C(=S)Oc2ccccc2N)S1 > 50 µM

Same for C[C@@H](c1ccccc1)C(CC#N)[C@H]1CCC[C@]1(O)C#Cc1ccc2c(c1)OCO2 (stereo partly specified) 33.1 µM

Same for COc1ccc2c(c1)N=C(N)n1c(nc3ccccc31)S2 > 100 µM

Same for CCOC(=O)C(C)c1nc2cc3cccnc3c(Cl)c2[nH]c1=O (stereo unspecified) > 100 µM

Same for CCCNC1=C(C)C(=O)C2=C(C1=O)[C@H](COC(N)=O)[C@]1(OC)[C@@H]3N[C@@H]3CN21 34 µM

Same for Cc1ccc(N2CN3OC(=O)N(c4ccccc4)[C@@]3(c3ccccc3)C2)cc1 > 100 µM

Same for CC1NOC(=O)C1N=Nc1ccccc1Br (stereo unspecified) 81.2 µM

Same for Cc1n[nH]c(=S)n1/N=C/c1ccc(-c2ccc(Cl)cc2)o1 > 100 µM

Same for CCOC(=O)C1(C)CCCc2sc(N)c(C#N)c21 (stereo unspecified) > 100 µM

---

tested on: OVCAR-5 ovarian; assay: NCI tumour cell line growth inhibition, 48 h
measure name: TGI

What measured TGI is associated with C#C[C@@]1(O)[C@@H](CO)O[C@@H](n2cc(Br)c3c(N)ncnc32)[C@@H]1O on OVCAR-5 ovarian? > 75.3 µM

Same for COC1CC(Br)(C#N)C1 (stereo not given) > 100 µM

Same for Cn1c(=O)nc2n(-c3cc(Cl)ccc3Cl)c3ccccc3nc-2c1=O 25.7 µM

Same for c1ccc2nc(-c3ccc4c(c3)OCO4)ccc2c1 > 100 µM

Same for O=C(NC1C(O)C(O)C(CO)OC1n1cc(F)c(=O)[nH]c1=O)OCc1ccccc1 (stereo not given) > 100 µM

Same for CC1CCC2(OC1)OC1CC3C4CCC5CC(O)CCC5(C)C4CC(=O)OC3(C)C1C2C (stereo not given) > 100 µM

Same for COc1cc(/C=C2\CCC/C(=C\c3ccc(OC(=O)CCCCC4CCSS4)c(OC)c3)C2=O)ccc1OC(=O)CCCCC1CCSS1 (stereo not given) > 100 µM

Same for COC1(OC)CC2CCCCC2=C(C)N1S(=O)(=O)c1ccccc1 (stereo not given) > 100 µM

Same for C=CCN(N=O)C(=O)NCCCC(NC(C)=O)C(=O)NCc1ccccc1 (stereo not given) > 100 µM

Same for COC(=O)Cc1c(-c2[nH]c3ccccc3c2CC(=O)OC)[nH]c2ccccc12 > 100 µM

Same for CC1NOC(=O)C1N=Nc1ccccc1Br (stereo not given) > 100 µM

Same for CC(C)OP(=O)(OC(C)C)c1ncc(-c2ccc(C(F)(F)F)cc2)c(NC2CCCCCC2)n1 > 10 µM

Same for Oc1ccc[n+](Cc2ccccc2)c1 > 100 µM

Same for NC(=S)C1=C(N)Oc2c(c(=O)oc3ccccc23)C1c1ccc(Br)cc1 (stereo not given) > 100 µM

Same for COc1ccccc1/C=C1\C(=O)N(C(=O)c2ccc(NC(C)=O)cc2)N=C1C > 100 µM

Same for C#CCCCCC#Cc1ccccc1C(=O)C=[N+]=[N-] > 100 µM

Same for COc1cc2nc3c(=C(C#N)C#N)c4ccccc4n3c(=O)c2cc1OC > 100 µM

Same for COc1ccc(C(=O)c2cc(OC)c(OC)c(OC)c2)cc1OC(=O)C(Cl)(Cl)Cl > 100 µM

Same for O=C(Nc1sccc1S(=O)(=O)c1ccc(Cl)cc1)c1ccc(Cl)cc1 > 100 µM

Same for O=C(O)CNS(=O)(=O)c1ccc(NC(=O)c2ccccc2[N+](=O)[O-])cc1 > 100 µM

Same for COc1cc2c(cc1O)CC[C@@H]1[C@@H]2CC[C@]2(C)[C@@H](OCCCN(C)C)CC[C@@H]12 1.14 µM

Same for COc1cc(COC(=O)N2CSCC2C(=O)O)c([N+](=O)[O-])cc1OC (stereo not given) > 100 µM

Same for CC12c3c4cccc3Oc3cc(N)cc(c31)Oc1cc(N)cc(c12)O4 16.1 µM

Same for CCCC(=O)OCC1OC(n2cnc3c(=S)nc(N)[nH]c32)C(OC(=O)CCC)C1OC(=O)CCC (stereo not given) > 85.5 µM

Same for OCCCCOC(c1ccccc1)(c1ccccc1)c1ccccc1 > 100 µM

---

Please go through the items and note down their TGI.
system: SF-539 CNS; assay: NCI tumour cell line growth inhibition, 48 h
Lab book: enter the figure in µM, no units written.

What measured TGI is associated with CCOC(=O)C(Br)(C(N)=O)C1(O)OC(c2ccccc2)=C(Br)C1=O (stereo unspecified) on SF-539 CNS? 32.3

Same for O=C(Nc1ccc(F)cc1F)c1cc(F)ccc1O 12.3

Same for Clc1ccccc1CN1COc2c(cc(Cl)c3cccnc23)C1 10.9

Same for Nc1nc(N)c2ncn(-c3ccc(Br)cc3)c2n1 46.5

Same for O=C(NC1CCCCC1)OCc1c(COC(=O)NC2CCCCC2)c(-c2ccc(Cl)c(Cl)c2)n2c1CCC2 13.7

Same for O=c1oc2c3ccc4ccccc4c3n(CCCN3CCCCC3)c2c2ccccc12 40.8

Same for COC(=O)C1=C(C(=O)OC)SC(=C(Cl)C(=S)Oc2ccccc2N)S1 35.5

Same for O=C1NC(=O)C(c2c[nH]c3cc(Br)ccc23)=C1c1cnc[nH]1 72.6

Same for C[C@]12CC[C@H]3[C@@H](CCC4=C[C@@H](N5CCCC5)CC[C@@]43C)[C@@H]1C/C(=C\c1ccncc1)[C@@H]2O 28.1

Same for Nc1cc(N)c2nc(-c3ccccc3)c(NCCc3ccc(Cl)c(Cl)c3)nc2c1 10.9

Same for COc1ccc(OC)c2c1C=C[C@H](C1(C)SCCS1)C2C(C)=O (stereo partly specified) 48.2

Same for COc1cc2c(cc1O)CC[C@@H]1[C@@H]2CC[C@]2(C)[C@@H](OCCCN(C)C)CC[C@@H]12 0.172

Same for Cc1ccc(NCCN(C)C)c2c(=O)c3cc(O)ccc3oc12 20.5

---

system: SK-MEL-28 melanoma; assay: NCI tumour cell line growth inhibition, 48 h
Please go through the items and note down their TGI.
Lab book: enter the figure in µM, no units written.

For CC[C@H](C)[C@H]1NC(=O)[C@@H](NC(=O)[C@@H](CC(C)C)N(C)C(=O)C2CCCN2C(=O)[C@H](C)O)[C@@H](C)OC(=O)[C@@H]2Cc3ccccc3CN2C(=O)[C@@H]2CCCN2C(=O)[C@H](CC(C)C)NC(=O)[C@@H](C)C(=O)[C@H](C(C)C)OC(=O)C[C@@H]1O (stereo partly specified) , what is its reported TGI? 23.1

Same for Cc1ccc(C(=O)CC(O)(C(F)(F)F)C(F)(F)F)cc1[N+](=O)[O-] 23.4

Same for CCCC(=O)OCC1OC(n2cnc3c(=S)nc(N)[nH]c32)C(OC(=O)CCC)C1OC(=O)CCC (stereo unspecified) 98

Same for CCN(CC)c1ccc2cc3ccc(=[N+](CC)CC)cc-3oc2c1 10.3

Same for C=CC[C@@]1(OC(C)=O)C(=O)C(=O)OC1C1COC(C)(C)O1 (stereo partly specified) 33.5

Same for CCOC(=O)C1=C(C)NC(C)=C(C(=O)OCC)C1c1ccc(Cl)cc1 37

Same for Cc1ccc(-c2nc3cc(N4CCN(C)CC4)c(F)cc3[nH]2)cc1 61.3

Same for O=C(O)/C=C\C(=O)c1ccc(Cl)cc1 34.7

Same for C[C@@H](CC(O)C1OC1(C)C)[C@@H]1CC[C@]2(C)C3=CCC4C(C)(C)C(O)CC[C@]4(C)C3CCC12C (stereo partly specified) 41.9

Same for CC1(C)CC[C@]2(C(=O)O)CC[C@]3(C)C(=CC[C@@H]4[C@@]5(C)CC[C@H](OC6OC(C(=O)O)C(O)C(O)C6O)C(C)(C)[C@@H]5CC[C@]43C)[C@@H]2C1 (stereo partly specified) 39.7

src = PubChem BioAssay (NCI)
